We begin with a simple list: items and their reported Ki.
TESTED ON: kappa-opioid receptor (KOR) (Cavia porcellus)
Construct: Guinea pig cortices and cerebella were homogenized using 50 mM Tris, pH 7.4; from tissue; host or cells: guinea pig cortex and cerebellum membranes
TEST PROTOCOL: KOR radioligand competition binding assay ([3H]U69,593)
Parameters: species or system guinea pig
REPORTED CONDITIONS: Kappa screening results, mean of Exp 1 and Exp 2; unit inferred; read-out: MEAN (Ki)
Write the answer as a number in µM, unit excluded.

Study these solved cases before continuing.
{"MOLECULE": "Cc1cc(O)cc(C)c1C[C@H]1CNC(=N)N1C[C@H](Cc1ccccc1)N1C[C@H](CC(C)C)NC1=N [1968-51]", "TESTED ON": "kappa-opioid receptor (KOR) (Cavia porcellus)", "Ki [µM]": 0.755}
{"MOLECULE": "CC(C)C[C@H]1CN([C@@H](Cc2ccccc2)CN2C(=N)NC[C@@H]2Cc2ccc(O)cc2)C(=N)N1 [1968-69]", "TESTED ON": "kappa-opioid receptor (KOR) (Cavia porcellus)", "Ki [µM]": 2.12}
{"MOLECULE": "CC(C)C[C@H]1CN([C@@H](CC(C)C)CN2C(=N)NC[C@@H]2Cc2ccccc2)C(=N)N1 [1968-11]", "TESTED ON": "kappa-opioid receptor (KOR) (Cavia porcellus)", "Ki [µM]": 11.4}

Ki reading for Cc1cc(O)cc(C)c1C[C@@H](CN1C(=N)NC[C@@H]1C)N1C[C@H](CC(C)C)NC1=N [1968-19] : 0.0665

Ki reading for Cc1cc(O)cc(C)c1C[C@@H](CN1C(=N)NC[C@@H]1Cc1ccc(O)cc1)N1C[C@H](CC(C)C)NC1=N [1968-31] : 2.33

====

We begin with a simple list: items and their reported Ki.
TESTED ON: delta-opioid receptor (DOR) (Rattus norvegicus, UniProt P33533)
Construct: Rat cortices were homogenized using 50 mM Tris, pH 7.4, 10 mM MgCl2-6H2O, 200 µM PMSF; from tissue; host or cells: rat cortex membranes
TEST PROTOCOL: DOR radioligand competition binding assay ([3H]-DPDPE)
REPORTED CONDITIONS: Delta screening results, first Ki column; unit not printed (apparently M); read-out: Ki (first column)
Write the answer as a number in µM, unit excluded.

Study these solved cases before continuing.
{"COMPOUND": "Cc1cc(O)cc(C)c1C[C@H]1CN([C@@H](Cc2c(C)cc(O)cc2C)CN2C(=N)NC[C@@H]2Cc2c(C)cc(O)cc2C)C(=N)N1 [1968-64]", "Ki [µM]": 0.508}
{"COMPOUND": "N=C1NC[C@H](Cc2ccccc2)N1C[C@H](Cc1ccc(O)cc1)N1C[C@H](Cc2ccc(O)cc2)NC1=N [1968-6]", "Ki [µM]": 4.88}
{"COMPOUND": "Cc1cc(O)cc(C)c1C[C@H]1CNC(=N)N1C[C@H](Cc1c(C)cc(O)cc1C)N1C[C@H](CC(C)C)NC1=N [1968-63]", "Ki [µM]": 2.27}

Ki reading for N=C1NC[C@H](Cc2ccc(O)cc2)N1C[C@H](Cc1ccc(O)cc1)N1C[C@H](Cc2ccc(O)cc2)NC1=N [1968-70] : 9.96

====

TESTED ON: mu-opioid receptor (MOR) (Rattus norvegicus)
Construct: Rat cortices were homogenized using 50 mM Tris, pH 7.4, and centrifuged at 16,500 rpm for 10 min; from tissue; host or cells: rat cortex membranes
TEST PROTOCOL: MOR radioligand competition binding assay ([3H]-DAMGO)
REPORTED CONDITIONS: Mu screening results, experiment 1; unit inferred; read-out: Ki (Exp 1)
Method: MOR binding assay: Rat cortices were homogenized using 50 mM Tris, pH 7.4, and centrifuged at 16,500 rpm for 10 min. The pellets were resuspended in fresh buffer and incubated at 37 °C for 30 min. […] All three binding assays were terminated by filtration through GF/B filters, soaked in 5 mg/mL bovine serum albumin, 50 mM Tris, pH 7.4, on a Tomtec Mach II Harvester 96. […] Bound radioactivity was counted on a Wallac Betaplate Liquid Scintillation Counter. […]
RECORDED ENDPOINT: pKi
pKi here: minus log base 10 of the concentration, concentration in moles per litre.

Study these solved cases before continuing.
{"LINE NOTATION": "Cc1cc(O)cc(C)c1C[C@H]1CN([C@@H](Cc2c(C)cc(O)cc2C)CN2C(=N)NC[C@@H]2C)C(=N)N1", "TESTED ON": "mu-opioid receptor (MOR) (Rattus norvegicus)", "pKi": 8.11}
{"LINE NOTATION": "C[C@H]1CNC(=N)N1C[C@H](Cc1ccc(O)cc1)N1C[C@H](Cc2ccccc2)NC1=N", "TESTED ON": "mu-opioid receptor (MOR) (Rattus norvegicus)", "pKi": 6.13}
{"LINE NOTATION": "CC(C)C[C@@H](CN1C(=N)NC[C@@H]1Cc1ccccc1)N1C[C@H](Cc2ccccc2)NC1=N", "TESTED ON": "mu-opioid receptor (MOR) (Rattus norvegicus)", "pKi": 6.07}

pKi reading for `N=C1NC[C@H](Cc2ccccc2)N1C[C@H](Cc1ccc(O)cc1)N1C[C@H](Cc2ccc(O)cc2)NC1=N` : 7.07
